Each entry below lists one item and its recorded Emax value.
Target: human M2 receptor (Homo sapiens, UniProt P08172)
Construct: expressed in transfected cells; host or cells: CHO-DUKX (CHO-DUKX-M2-GIRK)
Sequence (P08172 1-466): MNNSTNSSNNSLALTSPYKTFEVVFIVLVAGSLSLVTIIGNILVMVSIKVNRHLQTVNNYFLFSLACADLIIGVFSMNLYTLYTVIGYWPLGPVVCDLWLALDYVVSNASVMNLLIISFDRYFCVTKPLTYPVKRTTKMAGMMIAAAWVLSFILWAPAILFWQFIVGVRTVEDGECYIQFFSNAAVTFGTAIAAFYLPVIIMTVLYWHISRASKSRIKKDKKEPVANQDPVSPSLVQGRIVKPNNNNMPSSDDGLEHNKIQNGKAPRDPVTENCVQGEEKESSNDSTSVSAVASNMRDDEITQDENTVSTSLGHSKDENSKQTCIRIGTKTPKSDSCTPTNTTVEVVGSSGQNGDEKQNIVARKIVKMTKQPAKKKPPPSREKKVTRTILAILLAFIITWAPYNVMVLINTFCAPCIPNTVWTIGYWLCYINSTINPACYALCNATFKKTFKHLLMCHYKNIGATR
Experiment: Functional M2-GIRK1/4 activation test: allosteric potency (EC50) and efficiency at EC20 acetylcholine
Format: cell-based
Conditions: boosting of the acetylcholine effect at EC20 acetylcholine concentration; CHO-DUKX-M2-GIRK cells
Output spec: scalar in %, unitless text.

Completed entries (count: 2):
O=C(NC(C1CC1)C(F)(F)C(F)(F)F)c1cn(-c2c(F)cc(F)cc2F)c2nc(N3CC4(COC4)C3)c(F)cc2c1=O (single isomer, unassigned) : 97
CC(C)(NC(=O)c1cn(-c2c(F)cc(F)cc2F)c2nc(N3CC(CO)(CO)C3)c(F)cc2c1=O)C(F)(F)C(F)(F)F : 100

Then this compound:
Just so you know, measured Emax for CC(C)(CC(F)(F)F)NC(=O)c1cn(-c2c(F)cc(F)cc2F)c2nc(N3CC[C@H](O)C3)c(F)cc2c1=O came out at 92
